The values you see were collected from patent US20260315434A1.

This listing pairs molecules with measured degraded at 12 h.
assay: Conversion (release) of prodrug salts to parent compound in HEPES buffer pH 7.4; type: in vitro ADME; conditions: hepes buffer, pH 7.4, HEPES pH 7.4, 37 °C, 12 h; read-out: Release rate (conversion to Compound 1)
A bare number is not enough; add the unit after it.

Some molecules with recorded degraded at 12 h:
Ask | I would be grateful if you could share the reported degraded at 12 h for C[C@@]12CC[C@@H]3[C@H](OC(=O)[C@H]3CN3CCC(N4CCCCC4)CC3)[C@@H]3[C@]1(CC[C@@]3(C)O)C2 .
Reply | 52.5%

Ask | Here is the next molecule: C[C@@]12CC[C@@H]3[C@H](OC(=O)[C@H]3CN3CCCC3)[C@@H]3[C@]1(CC[C@@]3(C)O)C2
Reply | 53.7%

Ask | Here is the next molecule: CC(C)N(C[C@@H]1C(=O)O[C@H]2[C@H]1CC[C@@]1(C)C[C@]13CC[C@@](C)(O)[C@H]23)C(C)C
Reply | 49.5%

Ask | Here is the next molecule: C[C@@]12CC[C@@H]3[C@H](OC(=O)[C@H]3CN3CC4CCCC4C3)[C@@H]3[C@]1(CC[C@@]3(C)O)C2 (stereo partly shown)
Reply | 51.2%

Ask | Here is the next molecule: CCCCN(CCCC)C[C@@H]1C(=O)O[C@H]2[C@H]1CC[C@@]1(C)C[C@]13CC[C@@](C)(O)[C@H]23
Reply | 49.8%

Others:
Ask | I would be grateful if you could share the reported degraded at 12 h for C[C@@]12CC[C@@H]3[C@H](OC(=O)[C@H]3CN3CCC3)[C@@H]3[C@]1(CC[C@@]3(C)O)C2 .
Reply | 51.1%

Ask | Here is the next molecule: CCN(CC)C[C@@H]1C(=O)O[C@H]2[C@H]1CC[C@@]1(C)C[C@]13CC[C@@](C)(O)[C@H]23
Reply | 50%

----------
assay: Conversion (release) of prodrug salts to parent compound in HEPES buffer pH 7.4; format: in vitro ADME; details: hepes buffer, pH 7.4, HEPES pH 7.4, 37 °C, 4 h; read-out: Release rate (conversion to Compound 83)
quantity: degraded at 4 h
A bare number is not enough; add the unit after it.

Ask | I would be grateful if you could share the reported degraded at 4 h for CC1=C2CC[C@@](C)(OC(=O)N3CCCCC3)[C@@H]2[C@H]2OC(=O)[C@@H](CN(C)C)[C@@H]2CC1 .
Reply | 24.8%

Others:
Ask | I would be grateful if you could share the reported degraded at 4 h for CC1=C2CC[C@@](C)(OC(=O)N3CCCCC3)[C@@H]2[C@H]2OC(=O)[C@@H](CN3CCCC3)[C@@H]2CC1 .
Reply | 26.4%

----------
This listing pairs compounds with measured log10 Water-solubility.
experiment: Water solubility testing of compounds (HPLC); details: deionized water, 37 °C
Log10 applied to Water-solubility; unit prior to transform: mg/mL.

Ask | I would be grateful if you could share the reported log10 Water-solubility for CCCCN(CCCC)C[C@@H]1C(=O)O[C@H]2[C@H]1CC[C@@]1(C)C[C@]13CC[C@@](C)(O)[C@H]23 [Compound 30] .
Reply | 2.36

Others:
Ask | I would be grateful if you could share the reported log10 Water-solubility for C[C@@]12CC[C@@H]3[C@H](OC(=O)[C@H]3CN3CCC4(CCCC4)CC3)[C@@H]3[C@]1(CC[C@@]3(C)O)C2 [Compound 34] .
Reply | 2.11

Ask | Here is the next compound: C[C@@]12CC[C@@H]3[C@H](OC(=O)[C@H]3CN3CCCCCCC3)[C@@H]3[C@]1(CC[C@@]3(C)O)C2 [Compound 38]
Reply | 2.40

Ask | Here is the next compound: C[C@@]12CC[C@@H]3[C@H](OC(=O)[C@H]3CN3CCC3)[C@@H]3[C@]1(CC[C@@]3(C)O)C2 [Compound 14]
Reply | -0.34

Ask | Here is the next compound: C=C1C(=O)O[C@H]2[C@H]1CCC(C)=C1CC[C@@](C)(OC(=O)N3CCCCC3)[C@@H]12 [Compound 83]
Reply | -0.82

Ask | Here is the next compound: CC1=C2CC[C@@](C)(OC(=O)N3CCCCC3)[C@@H]2[C@H]2OC(=O)[C@@H](CN3CCCC3)[C@@H]2CC1 [Compound 101]
Reply | 2.03

Ask | Here is the next compound: CCCN(CCC)C[C@@H]1C(=O)O[C@H]2[C@H]1CC[C@@]1(C)C[C@]13CC[C@@](C)(O)[C@H]23 [Compound 29]
Reply | 2.46

Ask | Here is the next compound: C[C@@]12CC[C@@H]3[C@H](OC(=O)[C@H]3CN3CCC(N4CCCCC4)CC3)[C@@H]3[C@]1(CC[C@@]3(C)O)C2 [Compound 35]
Reply | 2.33

----------
assay: Water solubility testing of compounds (HPLC); conditions: deionized water, 37 °C
quantity: Water-solubility (mg/mL)
// return numeric value only (unit: mg/mL, not printed)

Some molecules with recorded Water-solubility:
Ask | I would be grateful if you could share the reported Water-solubility for C[C@@]12CC[C@@H]3[C@H](OC(=O)[C@H]3CN3CCCCC3)[C@@H]3[C@]1(CC[C@@]3(C)O)C2 [Compound 24] .
Reply | 300.5

Ask | Here is the next molecule: C[C@@]12CC[C@@H]3[C@H](OC(=O)[C@H]3CN3CC4CCCC4C3)[C@@H]3[C@]1(CC[C@@]3(C)O)C2 (stereo partly shown) [Compound 32]
Reply | 100.8

Ask | Here is the next molecule: C[C@@]12CC[C@@H]3[C@H](OC(=O)[C@H]3CN3CCCC3)[C@@H]3[C@]1(CC[C@@]3(C)O)C2 [Compound 3]
Reply | 1.305

Now examine the next entry.
Ask | I would be grateful if you could share the reported Water-solubility for C[C@@]12CC[C@@H]3[C@H](OC(=O)[C@H]3CN3CCC4(CC3)CC4)[C@@H]3[C@]1(CC[C@@]3(C)O)C2 [Compound 37] .
Reply | 357.5

----------
This listing pairs compounds with measured solubility.
experiment: Water solubility testing of compounds (HPLC); details: deionized water, water, Water-solubility, 37 °C
// return numeric value only (unit: mg/mL, not printed)

Ask | I would be grateful if you could share the reported solubility for CC1=C2CC[C@@](C)(OC(=O)N3CCCCC3)[C@@H]2[C@H]2OC(=O)[C@@H](CN3CCCC3)[C@@H]2CC1 .
Reply | 145

Ask | Here is the next compound: C=C1C(=O)O[C@H]2[C@H]1CCC(C)=C1CC[C@@](C)(OC(=O)N3CCCC3)[C@@H]12
Reply | 0.148

Ask | Here is the next compound: CC1=C2CC[C@@](C)(OC(=O)N3CCCCC3)[C@@H]2[C@H]2OC(=O)[C@@H](CN(C)C)[C@@H]2CC1
Reply | 132

Ask | Here is the next compound: CC1=C2CC[C@@](C)(OC(=O)N3CCCC3)[C@@H]2[C@H]2OC(=O)[C@@H](CN3CCCC3)[C@@H]2CC1
Reply | 278

Ask | Here is the next compound: C[C@@]12CC[C@@H]3[C@H](OC(=O)[C@H]3CN3CCOCC3)[C@@H]3[C@]1(CC[C@@]3(C)O)C2
Reply | 342

Now examine the next entry.
Ask | I would be grateful if you could share the reported solubility for C=C1C(=O)O[C@@H]2[C@@H]3[C@]4(CC[C@@]3(C)O)C[C@]4(C)CC[C@@H]12 .
Reply | 1.14

----------
This listing pairs compounds with measured metabolised at 4 h.
assay: Conversion (release) of prodrug salts to parent compound in mouse plasma; format: in vitro ADME; conditions: mouse, plasma, 37 °C, 4 h, read-out: Release rate (conversion to Compound 1)
// return numeric value only (unit: %, not printed)

Ask | I would be grateful if you could share the reported metabolised at 4 h for CCOC(=O)[C@@H]1CCCN1C[C@@H]1C(=O)O[C@H]2[C@H]1CC[C@@]1(C)C[C@]13CC[C@@](C)(O)[C@H]23 .
Reply | 26.8

Ask | Here is the next compound: C[C@@]12CC[C@@H]3[C@H](OC(=O)[C@H]3CN3CCC(N4CCCCC4)CC3)[C@@H]3[C@]1(CC[C@@]3(C)O)C2
Reply | 26.4

Ask | Here is the next compound: C[C@@]12CC[C@@H]3[C@H](OC(=O)[C@H]3CN3CCNCC3)[C@@H]3[C@]1(CC[C@@]3(C)O)C2
Reply | 29.3

Ask | Here is the next compound: CCN(CC)C[C@@H]1C(=O)O[C@H]2[C@H]1CC[C@@]1(C)C[C@]13CC[C@@](C)(O)[C@H]23
Reply | 24.4

Ask | Here is the next compound: CCCN(CCC)C[C@@H]1C(=O)O[C@H]2[C@H]1CC[C@@]1(C)C[C@]13CC[C@@](C)(O)[C@H]23
Reply | 24.6

Ask | Here is the next compound: CCN1CCN(C[C@@H]2C(=O)O[C@H]3[C@H]2CC[C@@]2(C)C[C@]24CC[C@@](C)(O)[C@H]34)CC1
Reply | 28.4

Ask | Here is the next compound: C[C@@]12CC[C@@H]3[C@H](OC(=O)[C@H]3CN3CCC4(CC3)CC4)[C@@H]3[C@]1(CC[C@@]3(C)O)C2
Reply | 29.3
